- System: c-Abl (mouse)
- methodSummary: phosphorylation enrichment, bacterial display (enrichment ratio); higher = better substrate or ligand; peptides without Tyr show the background
So basically: phosphorylation enrichment at 0.6 or higher? That is TRUE. Lower than 0.6? That is FALSE.

Some entries whose results are on file:
[
  {
    "residueCodes": "ALAHKYQGGGG [HBB_Y146_H147Q]",
    "categoryLabel": "FALSE"
  },
  {
    "residueCodes": "RIPFRYPKEFQ [IDS_Y234_H229R]",
    "categoryLabel": "TRUE"
  },
  {
    "residueCodes": "QRKPSYNQLPS [BRCA2_Y71_A75P]",
    "categoryLabel": "TRUE"
  },
  {
    "residueCodes": "VATRWYRSPEP [CDKL5_Y177_L182P]",
    "categoryLabel": "FALSE"
  }
]

Input line: Is phosphorylation enrichment for ESDFPYSSSFE [SRPK2_Y427_T426P_YF] at or above 0.6?
Output line: TRUE

* * *

- testTarget: SHP2-C SH2
- methodSummary: SH2 binding enrichment of the phosphorylated peptide, bacterial display (enrichment ratio); higher = better substrate or ligand; peptides without Tyr show the background
So basically: SH2 binding enrichment at 1 or higher? That is t. Lower than 1? That is f.

[
  {
    "residueCodes": "SVVVPYETPEV [TP53_Y220_P222T]",
    "categoryLabel": "f"
  },
  {
    "residueCodes": "AQMAMYFWEMG [TRPM4_Y577]",
    "categoryLabel": "t"
  },
  {
    "residueCodes": "EASEQHLTKAS [NRCAM_Y739_Y739H]",
    "categoryLabel": "f"
  }
]

Input line: Is SH2 binding enrichment for KEEEDYREENN [BMS1_Y651_K652R] at or above 1?
Output line: f

Input line: Is SH2 binding enrichment for IHSGIYYKPES [L2HGDH_Y102] at or above 1?
Output line: f

* * *

Kindly state phosphorylation enrichment for each of the entries shown.
- Test system: Fer (mouse)
- methodSummary: phosphorylation enrichment, bacterial display (enrichment ratio); higher = better substrate or ligand; peptides without Tyr show the background
Answers are plain numbers.

[
  {
    "residueCodes": "INMKEYCKKDF [NTN1_Y490_K489E_YF]",
    "phosphorylation enrichment": 0.427
  },
  {
    "residueCodes": "AADGRYEVLFL [SEMA3F_Y478]",
    "phosphorylation enrichment": 2.97
  },
  {
    "residueCodes": "TKGMIYGGGGG [PSME1_Y249]",
    "phosphorylation enrichment": 0.431
  },
  {
    "residueCodes": "LPPGEYVVVPS [CAPN1_Y494]",
    "phosphorylation enrichment": 0.778
  },
  {
    "residueCodes": "ARMTNYGLPRF [TSPAN12_Y138_YF]",
    "phosphorylation enrichment": 0.409
  },
  {
    "residueCodes": "RGDVIYKGFED [NFU1_Y194_G189R]",
    "phosphorylation enrichment": 0.681
  },
  {
    "residueCodes": "TSFSGYRCHRH [NKAPL_Y94_Y96C_YF]",
    "phosphorylation enrichment": 0.464
  },
  {
    "residueCodes": "QHNPEYVQQAT [LRRC7_Y1058_S1063T]",
    "phosphorylation enrichment": 0.461
  }
]

Please state, for each entry, its recorded phosphorylation enrichment.
1. TRSFKYLLLSM [NF1_Y491_YF]
2. CTTIHYHFMCN [TP53_Y234_N235H_YF]
3. EEGNPSFSSAR [MCCC2_Y520_Y520S_YF]
4. KNDSNYVVKGN [KIT_Y823]
5. IFRAAYFGVFD [SLC25A4_Y191_YF]

Output line:
1. 0.38
2. 0.632
3. 0.426
4. 0.323
5. 0.523

* * *

- testTarget: FGFR3 (UniProt P22607)
- Sequence (P22607 whole entry, looked up): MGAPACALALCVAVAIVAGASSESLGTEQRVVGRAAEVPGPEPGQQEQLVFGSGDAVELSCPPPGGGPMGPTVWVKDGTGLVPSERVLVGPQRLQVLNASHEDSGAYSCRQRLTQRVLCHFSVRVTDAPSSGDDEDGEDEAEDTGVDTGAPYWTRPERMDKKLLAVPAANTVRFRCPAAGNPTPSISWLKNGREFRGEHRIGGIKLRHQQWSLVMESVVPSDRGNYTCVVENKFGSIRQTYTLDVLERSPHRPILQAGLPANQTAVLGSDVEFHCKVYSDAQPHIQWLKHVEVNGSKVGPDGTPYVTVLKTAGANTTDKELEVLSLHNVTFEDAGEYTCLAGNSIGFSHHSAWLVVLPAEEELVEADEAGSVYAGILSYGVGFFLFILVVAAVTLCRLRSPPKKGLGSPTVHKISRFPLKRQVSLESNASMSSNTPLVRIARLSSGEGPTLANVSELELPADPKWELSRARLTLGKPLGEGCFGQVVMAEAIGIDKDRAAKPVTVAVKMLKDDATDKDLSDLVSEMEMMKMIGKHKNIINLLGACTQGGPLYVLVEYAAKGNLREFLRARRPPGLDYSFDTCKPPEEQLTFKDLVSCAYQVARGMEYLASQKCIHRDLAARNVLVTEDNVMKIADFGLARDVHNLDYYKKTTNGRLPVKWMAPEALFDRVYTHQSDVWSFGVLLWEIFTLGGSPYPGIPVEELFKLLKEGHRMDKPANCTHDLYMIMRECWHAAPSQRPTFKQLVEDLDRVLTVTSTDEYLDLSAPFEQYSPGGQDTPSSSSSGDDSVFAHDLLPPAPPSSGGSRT
- methodSummary: phosphorylation enrichment, bacterial display (enrichment ratio); higher = better substrate or ligand; peptides without Tyr show the background
So basically: phosphorylation enrichment at 1 or higher? That is class 1. Lower than 1? That is class 0.

[
  {
    "residueCodes": "INPIIYAFVVE [CCR5_Y297_G301V]",
    "categoryLabel": "class 1"
  },
  {
    "residueCodes": "GRERPYGGGGG [FUS_Y526_R521G]",
    "categoryLabel": "class 0"
  },
  {
    "residueCodes": "CYSSEYHYVGG [CTSC_Y345_Y340C]",
    "categoryLabel": "class 1"
  }
]

Input line: Is phosphorylation enrichment for AFDNLYFWDQD [ERBB2_Y1221_YF] at or above 1?
Output line: class 1

Input line: Is phosphorylation enrichment for GGFNNYGFGSD [HNRNPH3_Y159_N163S_YF] at or above 1?
Output line: class 0

Input line: Is phosphorylation enrichment for IHSGIYYKPES [L2HGDH_Y102] at or above 1?
Output line: class 1

Input line: Is phosphorylation enrichment for TTANRYLKVSD [MYOM2_Y871] at or above 1?
Output line: class 0

* * *

- testTarget: MERTK (UniProt Q12866)
- Sequence (Q12866 whole entry, looked up): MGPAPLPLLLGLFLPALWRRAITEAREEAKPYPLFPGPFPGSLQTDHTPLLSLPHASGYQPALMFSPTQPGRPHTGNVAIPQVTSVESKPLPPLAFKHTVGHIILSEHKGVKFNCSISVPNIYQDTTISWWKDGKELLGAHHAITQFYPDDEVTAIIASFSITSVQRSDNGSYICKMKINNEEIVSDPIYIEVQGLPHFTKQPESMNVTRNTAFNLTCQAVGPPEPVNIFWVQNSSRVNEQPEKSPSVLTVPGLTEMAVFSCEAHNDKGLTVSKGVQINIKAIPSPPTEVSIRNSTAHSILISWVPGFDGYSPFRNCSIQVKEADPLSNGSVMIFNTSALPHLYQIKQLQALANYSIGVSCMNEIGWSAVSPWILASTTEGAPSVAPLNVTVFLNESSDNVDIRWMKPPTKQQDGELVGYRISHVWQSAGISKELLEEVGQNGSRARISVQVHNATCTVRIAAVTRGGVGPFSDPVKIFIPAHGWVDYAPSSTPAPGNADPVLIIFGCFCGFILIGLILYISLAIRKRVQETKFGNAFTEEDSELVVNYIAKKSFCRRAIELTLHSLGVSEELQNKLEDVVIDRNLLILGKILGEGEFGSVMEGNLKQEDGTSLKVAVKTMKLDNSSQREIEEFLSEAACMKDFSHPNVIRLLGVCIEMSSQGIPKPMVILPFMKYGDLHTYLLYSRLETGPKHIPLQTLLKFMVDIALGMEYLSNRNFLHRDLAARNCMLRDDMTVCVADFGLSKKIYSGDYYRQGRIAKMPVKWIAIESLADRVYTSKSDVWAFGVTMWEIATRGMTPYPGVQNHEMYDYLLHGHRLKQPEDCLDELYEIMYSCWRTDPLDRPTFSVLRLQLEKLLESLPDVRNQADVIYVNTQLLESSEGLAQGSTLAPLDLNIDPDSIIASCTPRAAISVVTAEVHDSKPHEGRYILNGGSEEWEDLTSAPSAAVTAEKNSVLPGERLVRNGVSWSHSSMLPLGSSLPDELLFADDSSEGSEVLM
- methodSummary: phosphorylation enrichment, bacterial display (enrichment ratio); higher = better substrate or ligand; peptides without Tyr show the background
So basically: phosphorylation enrichment at 0.6 or higher? That is Y. Lower than 0.6? That is N.

Some entries whose results are on file:
[
  {
    "residueCodes": "IGERTYGQVYK [CDK13_Y716_G714R]",
    "categoryLabel": "N"
  },
  {
    "residueCodes": "RAYRHYLLKQK [SCN2A_Y1919_R1918H]",
    "categoryLabel": "N"
  },
  {
    "residueCodes": "NPETCYQKLKK [TK2_Y190_R192K]",
    "categoryLabel": "N"
  }
]

Input line: Is phosphorylation enrichment for PRNLIYFGEHP [TRPV6_Y201_C197R] at or above 0.6?
Output line: N

Input line: Is phosphorylation enrichment for CSHMFYGKQCC [ADAMTS16_Y1211_K1209M] at or above 0.6?
Output line: N

Input line: Is phosphorylation enrichment for HNLDFYKETTN [FGFR3_Y648_K650E_YF] at or above 0.6?
Output line: Y

* * *

- Tested on: c-Src
- methodSummary: phosphorylation enrichment, bacterial display (enrichment ratio); higher = better substrate or ligand; peptides without Tyr show the background
Kindly state phosphorylation enrichment for each of the entries shown.
One number for each entry.

[
  {
    "residueCodes": "LGQRIYQFIRS [DYRK1B_Y271_Q275R_YF]",
    "phosphorylation enrichment": 2.83
  },
  {
    "residueCodes": "IFRAAYFGVFD [SLC25A4_Y191_YF]",
    "phosphorylation enrichment": 0.438
  },
  {
    "residueCodes": "PVQAAYQKVEA [HBB_Y131_V135E]",
    "phosphorylation enrichment": 0.587
  },
  {
    "residueCodes": "MGSFNYLGFPR [SPTLC2_Y178_A182P_YF]",
    "phosphorylation enrichment": 0.615
  },
  {
    "residueCodes": "VRSVDYVLFRS [FAM189B_Y361]",
    "phosphorylation enrichment": 0.403
  }
]

Please state, for each entry, its recorded phosphorylation enrichment.
1. MEIHAYLKLLE [LMNA_Y376_R377L]
2. GDKENYGLPQP [BUB1_Y538_N534D]
3. SPRDTYSDRSG [CTPS1_Y567]

Output line:
1: 0.569; 2: 0.433; 3: 0.375

* * *

- testTarget: c-Src SH2
- methodSummary: SH2 binding enrichment of the phosphorylated peptide, bacterial display (enrichment ratio); higher = better substrate or ligand; peptides without Tyr show the background
reportedMetric: SH2 binding enrichment

Here are 3 sequences together with their reported answers.
[
  {
    "residueCodes": "RDSQLYAVDYE [MRPS34_Y34]",
    "testTarget": "c-Src SH2",
    "SH2 binding enrichment": 0.545
  },
  {
    "residueCodes": "GEVLVYAEDPA [FLNA_Y319_V320A]",
    "testTarget": "c-Src SH2",
    "SH2 binding enrichment": 0.549
  },
  {
    "residueCodes": "RESSGYLRLAF [MEP1A_Y481]",
    "testTarget": "c-Src SH2",
    "SH2 binding enrichment": 0.991
  }
]

Please state, for each entry, its recorded SH2 binding enrichment.
1. HFGCVYYGTLL [MET_Y1093_H1094Y]
2. DSKIRYLSADS [TTF1_Y476_E473K]

Output line:
0.578
0.426

* * *

- Test system: c-Abl (mouse)
- methodSummary: phosphorylation enrichment, bacterial display (enrichment ratio); higher = better substrate or ligand; peptides without Tyr show the background
Kindly state phosphorylation enrichment for each of the entries shown.
Numbers only.

[
  {
    "residueCodes": "HSGIFYKPESL [L2HGDH_Y103_YF]",
    "readoutValue": 3.79
  },
  {
    "residueCodes": "VTSLKYSTSPF [BRIP1_Y916_YF]",
    "readoutValue": 0.482
  },
  {
    "residueCodes": "MKKQKYGRIIM [HSD17B4_Y143]",
    "readoutValue": 0.771
  },
  {
    "residueCodes": "KNDSNYVVKGN [KIT_Y823]",
    "readoutValue": 0.568
  },
  {
    "residueCodes": "PADCRYYAFPQ [GAMT_Y222]",
    "readoutValue": 5.14
  },
  {
    "residueCodes": "AFLEDYFTSTK [SRC_Y522_E527K]",
    "readoutValue": 0.591
  }
]

Read the next record carefully.
Form field phosphorylation enrichment, entry VLDCHYPEDEV [C1QBP_Y188] : 0.919

Values compiled from the supplement of paper PMC10065799.
